Experiment: Growth inhibition of human MCF7 cells after 48 hrs by WST1 assay
Assay type: functional, cell-based
Test Parameters: MCF7, 48 h
pIC50: −log10 of the molar value.
Measured Attribute: pIC50

{"Compound": "O=C1Nc2ccccc2[C@]12N1CSC[C@H]1C(c1ccc(Cl)cc1Cl)[C@]21CCC/C(=C\\c2ccc(Cl)cc2Cl)C1=O (single isomer, unassigned)", "Measured Attribute": "pIC50", "Assay Value": 4.58}
{"Compound": "Cc1cccc(/C=C2\\CCC[C@@]3(C2=O)[C@@H](c2cccc(C)c2)[C@@H]2CSCN2[C@@]32C(=O)Nc3ccccc32)c1", "Measured Attribute": "pIC50", "Assay Value": 4.55}
{"Compound": "O=C1Nc2ccccc2[C@]12N1CSC[C@H]1[C@H](c1cccc(F)c1)[C@]21CCC/C(=C\\c2cccc(F)c2)C1=O", "Measured Attribute": "pIC50", "Assay Value": 3.84}
{"Compound": "O=C1Nc2ccccc2[C@]12N1CSC[C@H]1[C@H](c1ccc(Br)cc1)[C@]21CCC/C(=C\\c2ccc(Br)cc2)C1=O", "Measured Attribute": "pIC50", "Assay Value": 4.81}
{"Compound": "O=c1[nH]cc(F)c(=O)[nH]1 [FLUOROURACIL]", "Measured Attribute": "pIC50", "Assay Value": 4.11}
{"Compound": "O=C1Nc2ccccc2[C@]12N1CSC[C@H]1[C@H](c1ccccc1)[C@]21CCC/C(=C\\c2ccccc2)C1=O", "Measured Attribute": "pIC50", "Assay Value": 4.57}
{"Compound": "Cc1ccc(/C=C2\\CCC[C@@]3(C2=O)[C@@H](c2ccc(C)cc2)[C@@H]2CSCN2[C@@]32C(=O)Nc3ccccc32)cc1", "Measured Attribute": "pIC50", "Assay Value": 4.37}
